- Tested on: HL60 cell line
- ASSAY NOTES: Inhibitory effect on growth of HL60 cell line (MTT)
- Format: cell-based
- RUN CONDITIONS: Homo sapiens, HL-60, 72 h, 3 days culture
Measured IC50 accompanies every entry in the list below.

Sample records with IC50:
[[record]]
compound = "CCS(=O)(=O)N(CCCCCCC(=O)NO)c1ccc(-c2ccc3cc[nH]c3c2)cc1 [Compound 276]"
observable = "IC50"
value_observed = "20 to 50 nM"

[[record]]
compound = "O=C(CCCCCCN(C(=O)c1cccnc1)c1ccc(-c2ccc3cc[nH]c3c2)cc1)NO [Compound 181]"
observable = "IC50"
value_observed = "20 to 50 nM"

[[record]]
compound = "CN(C)S(=O)(=O)N(CCCCCCC(=O)NO)c1ccc(-c2ccc3cc[nH]c3c2)cc1 [Compound 277]"
observable = "IC50"
value_observed = "50 to 100 nM"


-- ask Give reported IC50 value for CS(=O)(=O)N(CCCCCCC(=O)NO)c1ccc(-c2ccc3cc[nH]c3c2)cc1 [Compound 264]
-- reply 20 to 50 nM

-- ask Give reported IC50 value for Cc1cc2cc(-c3ccc(N(CCCCCCC(=O)NO)S(C)(=O)=O)cc3)ccc2[nH]1 [Compound 296]
-- reply 50 to 100 nM

-- ask Give reported IC50 value for CCOC(=O)N(CCCCCCC(=O)NO)c1ccc(-c2ccc3cc[nH]c3c2)cc1 [Compound 267]
-- reply 50 to 100 nM
